Hey, just so you know, these numbers are from ChEMBL document CHEMBL1151200.

Tested on: SK-MEL-5
Test: Antitumor activity against human SK-MEL-5 cells
Type: functional, cell-based
recorded_metric: pIC50
API: returns pIC50 as number; meaning -log10 of concentration in mol/L.

>>> print(df.to_string())
                                   molecule  test_value
0  O=C1c2ccccc2-[n+]2ccc3c([nH]c4ccccc43)c21.[Cl-] [FASCAPLYSIN CHLORIDE]        5.70

q: Consider the molecule CC1=C(CC/C(C)=C/CC/C(C)=C/CCC(CC(=O)O)C(=O)[O-])C(C)(C)CCC1.O=C1c2ccccc2-[n+]2ccc3c([nH]c4ccccc43)c21 (stereo not drawn) tested on SK-MEL-5; state its pIC50.
a: 6.28

====

Reported pIC50 values for the following compounds.
Tested on: KM12
Assay: Antitumor activity against human KM12 cells
Format: functional, cell-based
pIC50 field: float, defined as -log10 of concentration (mol/L).

# annotated cases, reported pIC50 shown
                                   compound  test_value
0  CC1=C(CC/C(C)=C/CC/C(C)=C/CCC(CC(=O)O)C(=O)[O-])C(C)(C)CCC1.O=C1c2ccccc2-[n+]2ccc3c([nH]c4ccccc43)c21 (stereo not drawn)        5.14
1  O=C1c2ccc(Br)cc2-[n+]2ccc3c([nH]c4ccccc43)c21.[Cl-]        5.07

Pending compound:
q: Lab note: record pIC50 of O=C1c2ccccc2-[n+]2ccc3c([nH]c4ccccc43)c21.[Cl-] [FASCAPLYSIN CHLORIDE] tested on KM12.
a: 5.34

====

pIC50 listing for selected molecules.
System: OVCAR-3
Assay: Antitumor activity against human OVCAR-3 cells
Type: functional, cell-based
Reminder that pIC50 means the negative base-10 logarithm of the concentration expressed in mol/L.

Some molecules with known pIC50 results, for comparison:
                                   molecule  test_value
0  O=C1c2ccccc2-[n+]2ccc3c([nH]c4ccccc43)c21.[Cl-] [FASCAPLYSIN CHLORIDE]        5.82
1  O=C1c2ccc(Br)cc2-[n+]2ccc3c([nH]c4ccccc43)c21.[Cl-]        5.36

q: Provide only the value of recorded pIC50 for CC1=C(CC/C(C)=C/CC/C(C)=C/CCC(CC(=O)O)C(=O)[O-])C(C)(C)CCC1.O=C1c2ccccc2-[n+]2ccc3c([nH]c4ccccc43)c21 (stereo not drawn)
a: 5.51

====

The following molecules are shown together with reported IC50 values.
System: OVCAR-5
Assay: Antitumor activity against human OVCAR5 cells
Format: functional, cell-based
Kindly answer with a numeric value in µM, unit omitted.

q: For the molecule CC1=C(CC/C(C)=C/CC/C(C)=C/CCC(CC(=O)O)C(=O)[O-])C(C)(C)CCC1.O=C1c2ccccc2-[n+]2ccc3c([nH]c4ccccc43)c21 (stereo not drawn) [FASCAPLYSIN A] , give its measured IC50 value.
a: 5.8

q: Dear colleague, please send me the reported IC50 for O=C1c2ccccc2-[n+]2ccc3c([nH]c4ccccc43)c21.[Cl-] [FASCAPLYSIN CHLORIDE] when you can.
a: 4.4

====

Test system: A549
Assay: Antitumor activity against human A549/ATCC cells
Type: functional, cell-based
pIC50 values for the compounds below.
Remember the convention: pIC50 equals -log10 of concentration in molar.

compound	pIC50
O=C1c2ccccc2-[n+]2ccc3c([nH]c4ccccc43)c21.[Cl-] [FASCAPLYSIN CHLORIDE]	5.38

q: Kindly indicate its recorded pIC50. Item: CC1=C(CC/C(C)=C/CC/C(C)=C/CCC(CC(=O)O)C(=O)[O-])C(C)(C)CCC1.O=C1c2ccccc2-[n+]2ccc3c([nH]c4ccccc43)c21 (stereo not drawn) [FASCAPLYSIN A]
a: 5.12

====

Assay: Antitumor activity against human Hs 578T cells
Format: functional, cell-based
pIC50: −log10 of the molar value.
# pIC50 listing for each entry below

In [3]: df
Out[3]:
                                   compound  test_value
0  CC1=C(CC/C(C)=C/CC/C(C)=C/CCC(CC(=O)O)C(=O)[O-])C(C)(C)CCC1.O=C1c2ccccc2-[n+]2ccc3c([nH]c4ccccc43)c21 (stereo not drawn)      < 5.00
1  O=C1c2ccc(Br)cc2-[n+]2ccc3c([nH]c4ccccc43)c21.[Cl-]        6.23

Turning to the following compound.
q: Answer with the recorded pIC50 of O=C1c2ccccc2-[n+]2ccc3c([nH]c4ccccc43)c21.[Cl-] [FASCAPLYSIN CHLORIDE] only.
a: < 5.00

====

System: OVCAR-8
Assay: Antitumor activity against human OVCAR8 cells
Format: functional, cell-based
recorded_metric: IC50 (µM)
Give the value in µM but do not write µM after it.

>>> df
                                   molecule  recorded_metric  unit_string  test_value
0  O=C1c2ccc(Br)cc2-[n+]2ccc3c([nH]c4ccccc43)c21.[Cl-]             IC50           µM         0.6

// below: IC50 requested for another molecule
q: Please indicate IC50 recorded for CC1=C(CC/C(C)=C/CC/C(C)=C/CCC(CC(=O)O)C(=O)[O-])C(C)(C)CCC1.O=C1c2ccccc2-[n+]2ccc3c([nH]c4ccccc43)c21 (stereo not drawn)
a: 5.3

====

Test system: COLO 205
Assay: Antitumor activity against human COLO205 cells
Assay type: functional, cell-based
Here, each record is paired with measured pIC50 data.
Answer as the number alone; pIC50 is minus log10 of concentration in mol/L.

compound	test_value
O=C1c2ccccc2-[n+]2ccc3c([nH]c4ccccc43)c21.[Cl-] [FASCAPLYSIN CHLORIDE]	5.92

From here, focus on the item given below.
q: Name the recorded pIC50 of the item CC1=C(CC/C(C)=C/CC/C(C)=C/CCC(CC(=O)O)C(=O)[O-])C(C)(C)CCC1.O=C1c2ccccc2-[n+]2ccc3c([nH]c4ccccc43)c21 (stereo not drawn) [FASCAPLYSIN A] in your answer.
a: 6.08
